Dear all, this message contains pIC50 results, target or system GCN2 (Homo sapiens (Human)).
pIC50: −log10 of the molar value.

Data request, read-out pIC50, for "Cc1cnc(Nc2cc(C)n(C)n2)nc1-c1c[nH]c2c(NC(=O)CN3CC[C@H](Oc4ccnc(NCCO)n4)C3)cccc12"
> 8.00

Consider the molecule Cc1cnc(Nc2cc(C)n(C)n2)nc1-c1c[nH]c2c(NC(=O)CN3CCC(O)C3)cccc12 (centres unmarked) and give its measured pIC50.
7.00 to 8.00

Fill in the blank: the reported pIC50 of "Cc1cnc(Nc2cc(C)n(C)n2)nc1-c1c[nH]c2c(N3Cc4c(-c5ccncc5)ccnc4C3=O)cccc12" is ____.
> 8.00

Field request: pIC50 | item: "Cc1cnc(Nc2cc(C)n(C)n2)nc1-c1c[nH]c2c(N3Cc4cccc(C5=CCCCC5)c4C3=O)cccc12"
6.00 to 7.00

# lookup: pIC50 of "Cc1cnc(Nc2cc(C)n(C)n2)nc1-c1c[nH]c2c(N3Cc4c(cccc4-c4cn[nH]c4)C3=O)cccc12"
> 8.00

pIC50 lookup needed for "Cc1cnc(Nc2cc(C)n(C)n2)nc1-c1c[nH]c2c(N3Cc4c(cccc4-c4ccc(N5CCOCC5)nc4)C3=O)cccc12" , thanks.
> 8.00

Could you tell me which pIC50 is on file for "Cc1cnc(Nc2cc(C)n(C)n2)nc1-c1c[nH]c2c(N3Cc4cccnc4C3=O)cccc12" ?
> 8.00

Returns the measured pIC50 for the input molecule. Input: "Cc1cnc(Nc2cc(C)n(C)n2)nc1-c1c[nH]c2c(N3Cc4c(cccc4-c4ccccc4C(F)(F)F)C3=O)cccc12"
6.00 to 7.00

# input molecule: "Cc1cnc(Nc2cc(C)n(C)n2)nc1-c1c[nH]c2c(N3C(=O)c4cccnc4C3=O)cccc12" ; wanted: its pIC50
> 8.00

Need pIC50, item "CNc1ccc(-c2ccncc2)c2c1C(=O)N(c1cccc3c(-c4nc(Nc5cc(C)n(C)n5)ncc4C)c[nH]c13)C2"
6.00 to 7.00

I would be grateful if you could share the reported pIC50 for "Cc1cnc(Nc2cc(C)n(C)n2)nc1-c1c[nH]c2c(NC(=O)CN3CC[C@H](Oc4ncc(F)c(N(C)C)n4)C3)cccc12" .
> 8.00

Any idea what pIC50 was measured for "Cc1cnc(Nc2cc(C)n(C)n2)nc1-c1c[nH]c2c(NC(=O)CN3CC[C@H](Oc4nc(N5CCOCC5)ncc4F)C3)cccc12" ?
> 8.00

Requested field: pIC50. Item: "COc1ccc2c(-c3nc(Nc4cc(C)n(C)n4)ncc3C)c[nH]c2c1NC(=O)CN1CC[C@H](Oc2ccnc(NC3CC3)n2)C1"
> 8.00

Entry "Cc1cnc(Nc2cc(C)n(C)n2)nc1-c1c[nH]c2c(NC(=O)CN3CC(Oc4cccnc4)C3)cccc12" has what pIC50?
6.00 to 7.00

====

pIC50: −log10 of the molar value.
measured_quantity: pIC50

pIC50 of Cc1cnc(Nc2cc(C)n(C)n2)nc1-c1c[nH]c2c(NC(=O)CN3CC[C@H](Oc4ccc(F)cc4Cl)C3)cccc12 [Example 85] on UniProt Q9P2K8?
6.00 to 7.00

Hi! What's the reported pIC50 for Cc1cnc(Nc2cc(C)n(C)n2)nc1-c1c[nH]c2c(NC(=O)CN3CC(Oc4cc(C(=O)NC5CC5)on4)C3)cccc12 [Example 33] on UniProt Q9P2K8?
7.00 to 8.00

Record lookup: for UniProt Q9P2K8, what pIC50 belongs to Cc1cnc(Nc2cc(C)n(C)n2)nc1-c1c[nH]c2c(N3Cc4c(-c5ccncc5)ccc([N+](=O)[O-])c4C3=O)cccc12 [Example 489] ?
> 8.00

Look up pIC50 with UniProt Q9P2K8 for this compound: Cc1cnc(Nc2cc(C)n(C)n2)nc1-c1c[nH]c2c(N3Cc4c(NC(=O)C5Cc6ccccc6C5)cccc4C3=O)cccc12 [Example 314]
7.00 to 8.00

Kindly state the measured pIC50 obtained for Cc1cnc(Nc2cc(C)n(C)n2)nc1-c1c[nH]c2c(N3Cc4cccc(-c5cn[nH]c5)c4C3=O)cccc12 [Example 386] with UniProt Q9P2K8.
7.00 to 8.00

Request: pIC50, test system UniProt Q9P2K8, entry Cc1cnc(Nc2cc(C)n(C)n2)nc1-c1c[nH]c2c(NC(=O)CN3CC[C@H](Oc4nc(NCc5ccccc5)ncc4F)C3)cccc12 [Example 230]
7.00 to 8.00

Ref: patent US20240025884A1
